Measured values drawn from the supplement of paper PMC9732359 for this set.

- Assay explanation: protein stability index of a GFP-peptide fusion (yeast GPS) (PSI 1-4); higher = more stable; sorted into four equal gates, so the index is relative within each strain
- Condition summary: doa10∆
Observation type: protein stability index

Solved cases below.
In [3]: df
Out[3]:
                       input_sequence  test_result
0           SRGAVSGQKAGLIAARR [RPL2A]          3.4
1           MREITETIAEAKKKVLD [RPO21]          3.5
2  NTSIAQFDIQSPLYMDT [YML103C/NUP188]         2.99

State recorded protein stability index for all listed sequences.
1. KIFIKDPKFVNSLLAKL [YML103C/NUP188]
2. PISKHSKQAIYTRAAAS [RPS25B]
3. RELLNPRYTYHTIFSDV [YML031W/NDC1]
4. IGLLNKSKSSLDGKFSL [RPN2]
5. SKNMSKSPSLTAQKYPI [YMR153W/NUP53]
6. LPVNIRRIIQNAQQTFH [RPO21]

2.25
2.64
3.01
2.67
2.46
2

State recorded protein stability index for all listed sequences.
1. KKRSKVRKETYSSYIYK [HTB2]
2. MSIVFGDKFSEDFRIQF [UBP6]
3. PRVIEPVYTAQWSATWI [PRP8]
4. SYSPTSPSYSPTSPNYS [RPO21]
5. FLPFNNSASNNGNLTSN [SWI1]
6. NTHAVLVALKRNADELS [PRE5]
7. TATGIKVFSLDPQYLVD [ASC1]

1. 3.15
2. 3.28
3. 1.8
4. 2.88
5. 2.94
6. 2.13
7. 2.52

State recorded protein stability index for all listed sequences.
1. SNDVLKPETPKGPIIIS [SIR2]
2. LVEARSLGHQTSLITAV [MTR3]

3
2.69

State recorded protein stability index for all listed sequences.
1. IIMHKDVEIGRMPIMLR [RET1]
2. LEGITTTIDSLNAELES [SMC3]

1: 3.29; 2: 1.57

State recorded protein stability index for all listed sequences.
1. KQRAGTASFIPLDTIET [SMC1]
2. KTAPIQESFVPNSERSG [YOR098C/NUP1]

1: 2.62; 2: 2.27

State recorded protein stability index for all listed sequences.
1. GTLKVILNLYSSAHLIR [YML103C/NUP188]
2. ELEGSFNKSAELSRIEN [YCS4]
3. GSLTFLDNKGSGEDAEE [YIL149C/MLP2]
4. MATLEELDAQTLPGDDE [RPT5]
5. KPLADLRPLFTRYELYI [YLR335W/NUP2]
6. HLERNRKDKDAKFRLIL [RPS13]
7. TKANDKNESATINEMMK [FAS2]

[2.07, 2.58, 3.48, 3.31, 2.4, 3.22, 3.1]

State recorded protein stability index for all listed sequences.
1. YQELAYRATSLDPSLRA [YML031W/NDC1]
2. LAQTLKLWRKIARLYSC [RRI2]
3. AKEKERMLEEAIDHLKA [YIL149C/MLP2]
4. FYGVLDQGNGWLYVYET [RPN6]
5. LDDTTIPVGLMAQENSM [MCD1]

2.8
1.2
3.03
2.9
1.5

State recorded protein stability index for all listed sequences.
1. GAGIERELARIKKYASV [RPL3]
2. LKFVKVRVRTTKIPQIG [RPB2]
3. IKSIIEQRKQKLSKILP [SMC3]
4. AGNSQITSGGFLLKAYI [SRB5]
5. LECQLFPQGLNIVMDSK [SSN8]
6. DWPTYVDQNPLTMHKII [SRB8]
7. DYCRILSDIETAVNGID [YGL172W/NUP49]

[3.49, 2.51, 2.44, 2.11, 1.74, 2.45, 3.28]
